Source of measurements: patent US20250026849A1

Target: T1, CD123 (Homo sapiens (Human), UniProt P26951 19-305, limits assumed)
T1 construct: The CD123 construct used in the ELISA is not described; also called CD123-Signal
T1 sequence: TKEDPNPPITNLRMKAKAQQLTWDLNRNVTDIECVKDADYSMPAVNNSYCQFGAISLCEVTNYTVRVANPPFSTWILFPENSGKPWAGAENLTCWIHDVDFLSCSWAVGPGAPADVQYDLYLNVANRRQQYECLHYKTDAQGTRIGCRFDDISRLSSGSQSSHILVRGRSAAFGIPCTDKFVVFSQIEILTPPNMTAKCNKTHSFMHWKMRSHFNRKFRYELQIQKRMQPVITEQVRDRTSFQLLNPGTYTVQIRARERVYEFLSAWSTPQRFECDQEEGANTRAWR
Assay: ELISA
Set-up: unit not given here
measured-attribute: ELISA_avg
Please reply with the value in numeric form only.

# count of solved cases: 2
1) D domain of SEQ ID NO: 407 (designed binder) MGSWEEFFTRLDAINERLEALGGSEAELAAFEKEIAAFESELQAYKGKGNPEVEMLRYEAAEIRHMLQAYRHN :: 3.9
2) D domain of SEQ ID NO: 493 (designed binder) MGSWHLFKWTLAEIKYELEALGGSEAELAWFEDDIATFEEELQWYKGKGNPEVEALRKEAAAIRDELQAYRHN :: 4

Input line: Specify ELISA_avg for D domain of SEQ ID NO: 553 (designed binder) MGSWHWFKEELAEIKEDLVALGGSEAELAWFEYDIAMFELSLQNYKGKGNPEVEALRKEAAAIRDELQAYRHN and stop.
Output line: 3.1
